Values from patent US8729082B2

# Test Target: human kinase Mps-1 (Homo sapiens, UniProt P33981)
# Construct: N-terminally GST-tagged human full length recombinant Mps-1 kinase
# Sequence (P33981 whole entry): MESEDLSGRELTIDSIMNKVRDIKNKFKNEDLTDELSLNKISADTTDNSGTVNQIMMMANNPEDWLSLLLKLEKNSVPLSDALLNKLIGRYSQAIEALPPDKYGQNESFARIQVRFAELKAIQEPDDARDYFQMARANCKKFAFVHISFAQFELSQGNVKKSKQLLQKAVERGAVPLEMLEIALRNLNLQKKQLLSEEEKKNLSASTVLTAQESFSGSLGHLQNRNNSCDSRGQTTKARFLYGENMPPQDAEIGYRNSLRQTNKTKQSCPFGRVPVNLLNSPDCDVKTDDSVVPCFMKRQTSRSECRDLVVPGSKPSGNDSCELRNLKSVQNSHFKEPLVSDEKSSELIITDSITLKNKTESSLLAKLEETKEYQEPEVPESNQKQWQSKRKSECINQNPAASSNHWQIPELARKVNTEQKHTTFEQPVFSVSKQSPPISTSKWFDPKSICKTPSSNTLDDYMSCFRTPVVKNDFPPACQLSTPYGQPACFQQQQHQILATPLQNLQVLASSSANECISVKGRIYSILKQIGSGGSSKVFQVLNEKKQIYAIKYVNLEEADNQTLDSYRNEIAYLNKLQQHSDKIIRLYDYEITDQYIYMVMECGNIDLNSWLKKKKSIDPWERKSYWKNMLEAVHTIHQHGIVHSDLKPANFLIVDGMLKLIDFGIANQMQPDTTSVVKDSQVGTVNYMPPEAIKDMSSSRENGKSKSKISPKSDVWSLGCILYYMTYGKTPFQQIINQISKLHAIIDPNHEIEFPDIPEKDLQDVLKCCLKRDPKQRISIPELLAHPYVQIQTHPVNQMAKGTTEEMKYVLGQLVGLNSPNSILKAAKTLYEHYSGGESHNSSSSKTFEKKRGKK
# Experimental Details: Mps-1 kinase assay (HTRF)
# Particulars: lowATP; mean; read-out: Mps1 lowATP mean IC50
pIC50: −log10 of the molar value.
Result Type: pIC50

| Molecule | Observed Measurement |
| --- | --- |
| CNC(=O)Nc1ccc(-c2cnc3c(NCc4cccnc4)nc4ccc(F)cc4n23)cc1 | 5.53 |
| CC(C)CNc1nc2ccccc2n2c(-c3ccc(C(=O)Nc4cc[nH]n4)cc3)cnc12 | 5.40 |
| CNC(=O)Nc1ccc(-c2cnc3c(NCc4cnn(C)c4)nc4cc(C)c(C)cc4n23)cc1 | 6.21 |
| CNC(=O)Nc1ccc(-c2cnc3c(NCc4ccco4)nc4ccc(F)cc4n23)cc1 | 5.29 |
| CCCCCNc1nc2ccccc2n2c(-c3ccc(C(=O)NC4CC4)cc3)cnc12 | 7.03 |
| COCCCNc1nc2cc(C)c(C)cc2n2c(-c3ccc(C(=O)NC4CC4)c(Cl)c3)cnc12 | 6.85 |
| CS(=O)(=O)Nc1ccc(Nc2nc3ccccc3n3c(-c4ccc(C(=O)NC5CC5)cc4)cnc23)cc1 | 6.69 |
| O=C(NC1CC1)c1ccc(-c2cnc3c(NCCCN4CCOCC4)nc4ccc(F)cc4n23)cc1 | 6.47 |
| CCNc1nc2cc(F)c(F)cc2n2c(-c3ccc(C(=O)NC4CC4)cc3)cnc12 | 7.22 |
| O=C(NC1CC1)c1ccc(-c2cnc3c(NCCCCO)nc4cc(F)c(F)cc4n23)cc1 | 7.23 |
| COCCNc1nc2cc(F)c(F)cc2n2c(-c3ccc(C(=O)NC4CC4)c(Cl)c3)cnc12 | 5.31 |
| Cc1cc2nc(NCCCN3CCOCC3)c3ncc(-c4ccc(C(=O)NC5CC5)c(Cl)c4)n3c2cc1C | 6.33 |
| COCCCNc1nc2cc(F)c(F)cc2n2c(-c3ccc(C(=O)NC4CC4)cc3)cnc12 | 6.94 |
| O=C(NC1CC1)c1ccc(-c2cnc3c(NCc4ccccc4F)nc4cc(F)c(F)cc4n23)cc1Cl | 5.42 |
| CCCCNc1nc2cc(F)c(F)cc2n2c(-c3ccc(NC(=O)NC)cc3)cnc12 | 4.71 |
| CCCNc1nc2cc(C#N)ccc2n2c(-c3ccc(C(=O)NC4CC4)cc3)cnc12 | 7.96 |
